# PROTOCOL_NOTES: chemical genetic growth profiling, strain panel (AID 1159580);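 note: tested at 20 µM; growth read once vehicle control cultures reached saturation at 30 °C; 1 = growth at the plate median or of vehicle wells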
# SETTINGS: S. cerevisiae deletion strains, growth OD, locus YBR023C, strain chs3, stronger effect = lower value
Hit rate of the full screen: of about 5,500 compounds, about 2,000 (36%) were called active. Roughly 18% stayed inconclusive and do not appear here. Some of the results follow.
Reported normalized growth values are given for each entry in this list.
Would you mind answering with just the numeric figure?

Given the compound CC1C[C@H]2CC(=O)[C@H]3CCCN4CCC[C@H]2[C@]34C1 (some centres undefined) , what is its reported normalized growth?
1.02

Given the compound CCCCCCCCCCCCCCCC(=O)OC1C(SC)OC(C(NC(=O)C2CC(CCC)CN2C)C(C)Cl)C(O)C1O (centres undefined) , what is its reported normalized growth?
0.984

Given the compound O=c1cc[nH]c(=S)[nH]1 , what is its reported normalized growth?
1.01

Given the compound C=C1CCC2C(CC2(C)C)C(=O)CCC1O (centres undefined) , what is its reported normalized growth?
0.986

Given the compound CC(=O)Oc1c(C)cccc1C(=O)O , what is its reported normalized growth?
1

Given the compound COc1c2ccoc2c(OC)c2oc(=O)ccc12 , what is its reported normalized growth?
0.888

Given the compound Nc1ccc(N=Nc2ccccc2)c(N)n1 , what is its reported normalized growth?
0.764

Given the compound C=C1CCC(OC(C)=O)/C(C)=C/C[C@@H]2[C@@H]1CC2(C)C (some centres undefined) , what is its reported normalized growth?
1.01

Given the compound O=c1[nH]oc2c1CCNC2 , what is its reported normalized growth?
0.998

Given the compound C=C1C(=O)O[C@@H]2C[C@@]3(C)CCC[C@H](C)C3=C[C@H]12 , what is its reported normalized growth?
0.886

Given the compound COc1c(OC)c2occc2c2oc(=O)ccc12 , what is its reported normalized growth?
0.976

Given the compound C=C1CCC2C(CC2(C)C)C(=C)CC/C1=N\O (centres undefined) , what is its reported normalized growth?
1.01

Given the compound CO/N=C(\C(=O)N[C@@H]1C(=O)N2C(C(=O)O)=C(CSc3nc(=O)c(O)nn3C)CS[C@H]12)c1csc(N)n1 , what is its reported normalized growth?
0.979

Given the compound CO/N=C(\C(=O)NC1C(=O)N2C(C(=O)O)=C(COC(N)=O)CSC12)c1ccco1 (centres undefined) , what is its reported normalized growth?
0.964

Given the compound Cc1ccc(Cl)c(Nc2ccccc2C(=O)O)c1Cl , what is its reported normalized growth?
0.852

Given the compound CCCCN1CCCCC1C(=O)Nc1c(C)cccc1C (centres undefined) , what is its reported normalized growth?
0.977

Given the compound CCCC(=O)O[C@]1(C(=O)CO)CCC2[C@@H]3CCC4=CC(=O)CC[C@]4(C)C3[C@@H](O)C[C@@]21C (some centres undefined) , what is its reported normalized growth?
1

Given the compound O=C(Cn1ccnc1[N+](=O)[O-])NCCO , what is its reported normalized growth?
1.02

Given the compound CO/N=C(\C(=O)N[C@@H]1C(=O)N2C(C(=O)O)=C(COC(C)=O)CS[C@H]12)c1csc(N)n1 , what is its reported normalized growth?
1.02

----------
# PROTOCOL_NOTES: chemical genetic growth profiling, strain panel (AID 1159580);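 note: tested at 20 µM; growth read once vehicle control cultures reached saturation at 30 °C; 1 = growth at the plate median or of vehicle wells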
# SETTINGS: S. cerevisiae deletion strains, growth OD, locus YOL147C, strain pex11
Screen size: about 5,500 compounds; about 2,000 (36%) were called active. About 18% were inconclusive and are not listed. No stated cut-off is given here; in the data, active means normalized growth mostly below about 0.91 (no sharp cut-off); inconclusive means no clear call, values can overlap the other calls; inactive means mostly above about 0.92. The list shows a part of the results.
Field 'call' accepts active, inactive

Below are worked cases with known answers.
> print(dat)
                                   molecule  label.class
1  C#CCCCCCCCCCCCC(O)CC(O)CO (centres undefined)     inactive
2  C#CCCCCCCCCCCCC(=O)CC(O)COC(C)=O (centres undefined)       active
3  COc1cc2c(cc1OC)C1Cc3ccc(OC)c(OC)c3CN1CC2 (centres undefined)     inactive

Now turn to the next molecule.
What did this assay record as the result for CC(=O)OCC(COC(C)=O)OC(C)=O ?
inactive
